Here the recorded Ki is given for each entry.
assay_target: GCN2 kinase (Homo sapiens)
measurement_notes: GCN2 enzyme inhibition assay (Transcreener ADP2 fluorescence polarization)
Format: biochemical
particulars: Enzyme activity for compounds of Formula IV; Ki(app), 280 μM ATP, 25° C.
reported_endpoint: Ki

compound: CC1CN(c2ccnc(-c3cnc4cnc(C(F)(F)F)cn34)n2)C(C)C(c2ccc(=O)[nH]c2)N1 (centres unmarked)
value_reported: 10 to 100 nM
//
compound: NCC1CN(c2ccnc(-c3cnc4cnc(C(F)(F)F)cn34)n2)CCO1 (centres unmarked)
value_reported: 100 to 1000 nM
//
compound: O=C(N[C@H]1CCCN(c2ccnc(-c3cnc4cnc(C(F)(F)F)cn34)n2)C1)c1ccoc1
value_reported: > 1000 nM
//
compound: CC1CN(c2ccnc(-c3cnc4cnc(Cl)cn34)n2)CC(CNS(C)(=O)=O)C1(F)F (centres unmarked)
value_reported: 10 to 100 nM
//
compound: OCc1cc(C2CCCN(c3ccnc(-c4cnc5cnc(C(F)F)cn45)n3)C2)n[nH]1 (centres unmarked)
value_reported: 100 to 1000 nM
//
compound: O=S(=O)(C1CCCN(c2ccnc(-c3cnc4cnc(C(F)F)cn34)n2)C1)N1CCOCC1 (centres unmarked)
value_reported: 100 to 1000 nM
//
compound: CC1C(C(N)=O)CCCN1c1ccnc(-c2cnc3cnc(C(F)F)cn23)n1 (centres unmarked) [IV-54]
value_reported: 10 to 100 nM
//
compound: OCCc1cc(C2CCCN(c3ccnc(-c4cnc5cnc(C(F)F)cn45)n3)C2)n[nH]1 (centres unmarked)
value_reported: 100 to 1000 nM

###

Below, each of the compounds is paired with its reported pKi value.
assay_target: GCN2 kinase (Homo sapiens, UniProt Q9P2K8)
Sequence (Q9P2K8 whole entry): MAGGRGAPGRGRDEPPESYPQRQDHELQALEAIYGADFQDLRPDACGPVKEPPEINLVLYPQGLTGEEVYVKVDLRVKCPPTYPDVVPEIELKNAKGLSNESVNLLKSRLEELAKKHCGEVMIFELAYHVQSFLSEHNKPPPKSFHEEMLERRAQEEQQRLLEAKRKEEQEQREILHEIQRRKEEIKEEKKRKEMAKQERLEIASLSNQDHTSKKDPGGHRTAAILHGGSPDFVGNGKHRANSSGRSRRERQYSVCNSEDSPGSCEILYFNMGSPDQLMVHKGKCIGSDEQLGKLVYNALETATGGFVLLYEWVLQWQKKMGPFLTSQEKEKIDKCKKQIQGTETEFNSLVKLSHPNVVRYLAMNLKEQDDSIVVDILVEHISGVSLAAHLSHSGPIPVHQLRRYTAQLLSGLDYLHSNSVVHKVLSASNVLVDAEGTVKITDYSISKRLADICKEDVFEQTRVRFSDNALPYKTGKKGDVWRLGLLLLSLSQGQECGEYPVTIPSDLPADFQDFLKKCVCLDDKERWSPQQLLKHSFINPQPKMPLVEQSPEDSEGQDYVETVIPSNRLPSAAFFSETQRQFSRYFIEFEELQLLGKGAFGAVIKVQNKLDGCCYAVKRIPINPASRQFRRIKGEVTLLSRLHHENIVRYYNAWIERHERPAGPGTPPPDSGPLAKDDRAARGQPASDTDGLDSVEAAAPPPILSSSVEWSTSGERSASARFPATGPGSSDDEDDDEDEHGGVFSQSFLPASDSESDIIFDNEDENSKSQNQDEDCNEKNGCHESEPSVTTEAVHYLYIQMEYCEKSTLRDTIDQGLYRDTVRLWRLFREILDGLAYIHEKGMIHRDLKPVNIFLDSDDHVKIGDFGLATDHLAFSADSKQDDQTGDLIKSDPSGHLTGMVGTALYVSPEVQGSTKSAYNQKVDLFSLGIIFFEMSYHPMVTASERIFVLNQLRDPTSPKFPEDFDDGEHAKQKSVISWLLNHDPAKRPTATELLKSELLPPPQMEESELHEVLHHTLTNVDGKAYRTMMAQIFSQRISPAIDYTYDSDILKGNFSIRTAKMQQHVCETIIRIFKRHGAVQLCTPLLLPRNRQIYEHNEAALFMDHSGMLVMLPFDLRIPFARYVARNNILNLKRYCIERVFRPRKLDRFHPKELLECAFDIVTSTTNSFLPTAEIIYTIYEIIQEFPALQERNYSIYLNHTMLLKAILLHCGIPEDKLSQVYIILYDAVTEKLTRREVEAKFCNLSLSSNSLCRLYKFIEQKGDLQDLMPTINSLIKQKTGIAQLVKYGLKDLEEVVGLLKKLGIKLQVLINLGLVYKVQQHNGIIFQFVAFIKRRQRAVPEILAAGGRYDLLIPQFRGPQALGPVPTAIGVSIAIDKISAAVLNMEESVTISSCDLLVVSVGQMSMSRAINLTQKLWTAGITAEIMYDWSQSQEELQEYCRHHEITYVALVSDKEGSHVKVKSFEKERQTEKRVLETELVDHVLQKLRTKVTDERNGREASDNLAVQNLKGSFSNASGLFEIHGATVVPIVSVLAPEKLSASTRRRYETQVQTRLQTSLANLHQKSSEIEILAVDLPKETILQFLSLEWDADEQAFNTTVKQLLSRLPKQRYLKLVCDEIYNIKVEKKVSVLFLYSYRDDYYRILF
measurement_notes: GCN2 enzyme inhibition assay (Transcreener ADP2 fluorescence polarization)
Type: biochemical
particulars: compounds of Formula II; 280 μM ATP, 4 nM GCN2 kinase
pKi: −log10 of the molar value.

compound: CC1CN(c2cc(-c3cnc4ccc(C(F)F)nn34)ccn2)CC(CNS(C)(=O)=O)C1(F)F (centres unmarked) [II-78]
pKi: > 8.00
//
compound: O=C1COC2(CN1)COCCN(c1cc(-c3cnc4ccc(C(F)F)nn34)ncn1)C2 (centres unmarked) [II-309]
pKi: < 6.00
//
compound: NC(=O)C1CN(c2cc(-c3cnc4ccc(C(F)F)nn34)ncn2)c2ccccc21 (centres unmarked) [II-16]
pKi: 6.00 to 8.00
//
compound: FC(F)c1ccc2ncc(-c3ccnc(N4CCOC(c5cn[nH]c5)C4)c3)n2n1 (centres unmarked) [II-147]
pKi: 6.00 to 8.00
//
compound: [2H]C([2H])([2H])N1CCN(c2cc(-c3cnc4ccc(C(F)F)nn34)ncn2)C(C)C1CNS(C)(=O)=O (centres unmarked) [II-561]
pKi: 6.00 to 8.00
//
compound: CS(=O)(=O)N1CCC(c2cc(-c3cnc4ccc(C(F)F)nn34)ncn2)C1 (centres unmarked) [II-250]
pKi: 6.00 to 8.00
//
compound: CS(C)(=O)=NC[C@@H]1CN(c2cc(-c3cnc4ccc(C(F)(F)F)nn34)ncn2)CCO1 [II-406]
pKi: < 6.00
//
compound: NC(=O)CC1CN(c2cc(-c3cnc4ccc(C(F)F)nn34)ncn2)CCN1 (centres unmarked) [II-483]
pKi: 6.00 to 8.00
//
compound: CC1C(CO)OCCN1c1cc(-c2cnc3ccc(C(F)F)nn23)ncn1 (single isomer, unassigned) [II-414]
pKi: 6.00 to 8.00
//
compound: CN=S(C)(=O)CC1CCCN(c2cc(-c3cnc4ccc(C(F)F)nn34)ncn2)C1 (centres unmarked) [II-26]
pKi: 6.00 to 8.00
//
compound: NS(=O)(=O)CC1CCCN(c2cc(-c3cnc4ccc(C(F)F)nn34)ncn2)C1 (centres unmarked) [II-219]
pKi: > 8.00
//
compound: CC1CC(C(=O)O)C(C)N(c2cc(-c3cnc4ccc(C(F)(F)F)nn34)ncn2)C1 (centres unmarked) [II-721]
pKi: 6.00 to 8.00
//
compound: CC1CC(CS(C)(=O)=O)C(C)N(c2cc(-c3cnc4ccc(C(F)F)nn34)ncn2)C1 (centres unmarked) [II-587]
pKi: > 8.00
//
compound: O=S(=O)(N[C@H]1CCCN(c2cc(-c3cnc4ccc(C(F)F)nn34)ncn2)C1)C1CNC1 [II-435]
pKi: 6.00 to 8.00
//
compound: C[C@H]1[C@@H](CO)CCCN1c1cc(-c2cnc3ccc(C(F)F)nn23)ncn1 (single isomer, unassigned) [II-392]
pKi: 6.00 to 8.00
//
compound: CS(=O)(=O)N1CC2CCN(c3cc(-c4cnc5ccc(C(F)F)nn45)ncn3)C2C1 (centres unmarked) [II-282]
pKi: 6.00 to 8.00
//
compound: CC1(O)CCN(c2cc(-c3cnc4ccc(C(F)F)nn34)ncn2)CC1CNS(C)(=O)=O (centres unmarked) [II-239]
pKi: > 8.00
//
compound: COCC(=O)N1CCN(c2cc(-c3cnc4ccc(C(F)F)nn34)ccn2)CC1 [II-170]
pKi: 6.00 to 8.00
//
compound: CS(=N)(=O)CC1CCCN(c2cc(-c3cnc4ccc(C(F)F)nn34)ncn2)C1 (single isomer, unassigned) [II-637]
pKi: 6.00 to 8.00
//
compound: FC(F)(F)c1ccc2ncc(-c3ccnc(N4CCOC(c5cn[nH]c5)C4)c3)n2n1 (single isomer, unassigned) [II-230]
pKi: > 8.00
//
compound: CC1C[S+]([O-])CCN1c1cc(-c2cnc3ccc(C(F)F)nn23)ncn1 (single isomer, unassigned) [II-355]
pKi: 6.00 to 8.00
//
compound: CC1CN(c2cc(-c3cnc4ccc(C(F)F)nn34)ccn2)CC(CNS(C)(=O)=O)C1(F)F (centres unmarked) [II-57]
pKi: > 8.00
//
compound: CNc1cc(-c2cnc3ccc(C(F)F)nn23)cc(N2CCC[C@H](CNS(C)(=O)=O)C2)n1 [II-68]
pKi: > 8.00
//
compound: CS(=O)(=O)NCC1(O)CCCN(c2cc(-c3cnc4ccc(C(F)F)nn34)ncn2)C1 (centres unmarked) [II-158]
pKi: 6.00 to 8.00
//
compound: CS(=O)(=O)NCC1CN(c2cc(-c3cnc4cccnn34)ccn2)CCO1 (centres unmarked) [II-732]
pKi: < 6.00
//
compound: N#CCC1CCCN(c2cc(-c3cnc4ccc(C(F)(F)F)nn34)ncn2)C1 (centres unmarked) [II-501]
pKi: 6.00 to 8.00
//
compound: OCC1CN(c2cc(-c3cnc4ccc(C(F)F)nn34)ncn2)CC2(CC2)O1 (centres unmarked) [II-359]
pKi: 6.00 to 8.00
//
compound: CCS(C)(=O)=NC1CC(C)CN(c2cc(-c3cnc4ccc(C(F)F)nn34)ncn2)C1 (single isomer, unassigned) [II-640]
pKi: 6.00 to 8.00
//
compound: CC(=O)N1CCN(c2cc(-c3cnc4ccc(N5CCOCC5)nn34)ccn2)CC1 [II-738]
pKi: < 6.00
//
compound: O=C1OC2(CC2)[C@@H]2CN(c3cc(-c4cnc5ccc(C(F)(F)F)nn45)ccn3)CCN12 [II-226]
pKi: 6.00 to 8.00
//
compound: CC1C[S+]([O-])CCN1c1cc(-c2cnc3ccc(C(F)F)nn23)ncn1 (single isomer, unassigned) [II-356]
pKi: 6.00 to 8.00
//
compound: CC1CN(c2cc(-c3cnc4ccc(C(N)=O)nn34)ncn2)C(C)C(c2cn[nH]c2)N1 (centres unmarked) [II-728]
pKi: 6.00 to 8.00

The measured values listed here are drawn from patent US10988477B2.
